Test System: CYP2D6 (Homo sapiens)
Sequence (P10635 whole entry): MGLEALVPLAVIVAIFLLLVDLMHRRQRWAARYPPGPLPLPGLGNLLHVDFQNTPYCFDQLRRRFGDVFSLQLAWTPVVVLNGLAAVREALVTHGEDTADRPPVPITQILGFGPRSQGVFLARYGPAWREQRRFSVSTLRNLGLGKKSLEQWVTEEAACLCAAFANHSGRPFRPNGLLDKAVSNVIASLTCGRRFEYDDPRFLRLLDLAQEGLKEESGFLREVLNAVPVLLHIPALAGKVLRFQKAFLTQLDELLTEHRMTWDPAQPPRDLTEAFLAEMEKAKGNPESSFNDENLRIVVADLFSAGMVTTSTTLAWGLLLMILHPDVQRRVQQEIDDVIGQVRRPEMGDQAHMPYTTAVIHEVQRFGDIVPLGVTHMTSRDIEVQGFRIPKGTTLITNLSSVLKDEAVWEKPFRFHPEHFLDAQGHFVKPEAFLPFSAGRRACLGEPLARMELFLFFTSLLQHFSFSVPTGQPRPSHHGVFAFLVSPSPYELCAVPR
Protocol Details: Inhibition of CYP2D6 in human liver microsomes using bufuralol as substrate at 10 uM in presence of NADPH regenerating system by LC-MS/MS analysis relative to control
Format: ADME, Microsome
Experimental Parameters: probe bufuralol
Measurement Kind: inhibition at 10 µM (%)
Expressed in %, but write only the number.

## Task Test system CYP2D6 (Homo sapiens); read-out inhibition at 10 µM; what value for COc1nc(-c2ccc(NC(=O)Nc3ccc(C(=O)NCCCCCC(=O)Nc4ccccc4N)cc3)cc2)nc(N2CCOCC2)n1 ?
## Result 48.8

----------
A short record of IC50 observed with Histone deacetylase 1 (Homo sapiens, UniProt Q13547) follows.
Sequence (Q13547 whole entry): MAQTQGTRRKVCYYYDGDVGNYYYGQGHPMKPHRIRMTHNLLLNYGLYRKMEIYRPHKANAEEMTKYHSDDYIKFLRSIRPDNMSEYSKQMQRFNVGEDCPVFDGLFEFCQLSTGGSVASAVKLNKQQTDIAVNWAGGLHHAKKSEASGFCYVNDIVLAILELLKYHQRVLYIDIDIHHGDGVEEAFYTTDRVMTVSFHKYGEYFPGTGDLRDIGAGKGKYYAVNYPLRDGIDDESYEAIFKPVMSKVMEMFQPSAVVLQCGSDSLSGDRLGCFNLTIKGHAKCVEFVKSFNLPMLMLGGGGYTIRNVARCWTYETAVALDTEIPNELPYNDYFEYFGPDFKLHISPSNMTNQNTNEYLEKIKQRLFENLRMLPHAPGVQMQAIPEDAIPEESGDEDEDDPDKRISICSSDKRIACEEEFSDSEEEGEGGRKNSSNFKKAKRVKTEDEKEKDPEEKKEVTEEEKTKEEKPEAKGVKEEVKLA

## Task // returns reported IC50 for input Nc1ccccc1NC(=O)CCCCCCNC(=O)c1ccc(NC(=O)Nc2ccc(-c3nc(N4CCOCC4)nc(N4CCOCC4)n3)cc2)cc1
## Result 0.404 µM

## Task Next record, please: COc1nc(-c2ccc(NC(=O)Nc3ccc(C(=O)Nc4ccc(F)c(F)c4N)cc3)cc2)nc(N2CCOCC2)n1
## Result > 10 µM

## Task Next record, please: Nc1ccccc1NC(=O)CCCCNC(=O)c1ccc(NC(=O)Nc2ccc(-c3nc(N4CCOCC4)nc(N4CCOCC4)n3)cc2)cc1
## Result > 10 µM

----------
A short record of IC50 observed with Histone deacetylase 3 (Homo sapiens, UniProt O15379) follows.
Sequence (O15379 whole entry): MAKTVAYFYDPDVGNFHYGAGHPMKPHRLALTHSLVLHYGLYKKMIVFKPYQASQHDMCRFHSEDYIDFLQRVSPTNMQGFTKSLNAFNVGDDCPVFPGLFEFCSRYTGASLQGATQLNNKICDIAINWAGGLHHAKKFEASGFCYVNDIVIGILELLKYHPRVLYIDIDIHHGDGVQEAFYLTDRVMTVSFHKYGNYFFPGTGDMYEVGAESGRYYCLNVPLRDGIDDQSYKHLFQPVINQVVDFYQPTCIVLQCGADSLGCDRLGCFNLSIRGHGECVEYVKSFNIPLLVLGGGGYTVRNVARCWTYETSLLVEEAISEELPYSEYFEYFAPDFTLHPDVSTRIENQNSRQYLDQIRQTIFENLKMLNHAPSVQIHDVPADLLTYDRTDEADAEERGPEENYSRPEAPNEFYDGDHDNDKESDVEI

## Task // returns reported IC50 for input Nc1ccccc1NC(=O)c1ccc(NC(=O)Nc2ccc(-c3nc(OC4COC4)nc(N4CCOCC4)n3)cc2)cc1
## Result > 10 µM

## Task Next record, please: Nc1ccccc1NC(=O)CNC(=O)c1ccc(NC(=O)Nc2ccc(-c3nc(N4CCOCC4)nc(N4CCOCC4)n3)cc2)cc1
## Result > 10 µM

## Task Next record, please: Nc1ccccc1NC(=O)CCCNC(=O)c1ccc(NC(=O)Nc2ccc(-c3nc(N4CCOCC4)nc(N4CCOCC4)n3)cc2)cc1
## Result > 10 µM

----------
Test System: Phosphatidylinositol 4,5-bisphosphate 3-kinase catalytic subunit alpha isoform (Homo sapiens)
Sequence (P42336 whole entry, canonical isoform): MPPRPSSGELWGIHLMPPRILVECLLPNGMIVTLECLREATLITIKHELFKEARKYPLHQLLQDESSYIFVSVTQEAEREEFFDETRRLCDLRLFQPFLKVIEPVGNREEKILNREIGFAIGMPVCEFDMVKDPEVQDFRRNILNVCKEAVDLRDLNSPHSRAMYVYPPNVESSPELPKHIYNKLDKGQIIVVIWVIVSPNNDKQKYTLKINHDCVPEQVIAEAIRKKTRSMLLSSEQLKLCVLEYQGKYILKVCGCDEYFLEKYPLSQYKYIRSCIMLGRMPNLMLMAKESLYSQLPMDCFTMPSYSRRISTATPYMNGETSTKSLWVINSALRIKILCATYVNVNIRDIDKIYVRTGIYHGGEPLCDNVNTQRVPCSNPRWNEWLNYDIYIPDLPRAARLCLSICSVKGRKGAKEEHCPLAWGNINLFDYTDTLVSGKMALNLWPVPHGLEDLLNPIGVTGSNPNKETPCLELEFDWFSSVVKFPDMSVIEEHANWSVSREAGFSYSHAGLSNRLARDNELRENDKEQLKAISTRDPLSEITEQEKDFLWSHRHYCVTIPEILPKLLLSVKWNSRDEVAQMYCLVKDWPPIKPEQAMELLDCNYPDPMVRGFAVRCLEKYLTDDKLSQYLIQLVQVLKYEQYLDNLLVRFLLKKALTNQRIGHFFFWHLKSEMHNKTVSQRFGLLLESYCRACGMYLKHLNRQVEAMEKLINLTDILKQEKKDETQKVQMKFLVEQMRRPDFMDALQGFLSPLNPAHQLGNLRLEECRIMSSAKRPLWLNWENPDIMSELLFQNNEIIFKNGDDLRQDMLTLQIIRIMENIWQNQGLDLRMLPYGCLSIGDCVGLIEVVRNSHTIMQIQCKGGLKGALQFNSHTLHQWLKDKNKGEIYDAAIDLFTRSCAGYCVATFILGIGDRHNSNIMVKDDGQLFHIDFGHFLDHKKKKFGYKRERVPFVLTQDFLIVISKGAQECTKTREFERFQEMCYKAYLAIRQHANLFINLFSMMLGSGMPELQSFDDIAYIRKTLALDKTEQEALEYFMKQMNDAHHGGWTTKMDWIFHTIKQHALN
Protocol Details: Inhibition of PI3Kalpha (unknown origin) using PIP2 as substrate incubated for 1 hrs in presence of ATP by ADP-Glo kinase assay
Measurement Kind: pIC50
Scale: pIC50 equals -log10([C]), with [C] in mol/L.

## Task // returns reported pIC50 for input Nc1ccccc1NC(=O)c1ccc(NC(=O)Nc2ccc(-c3nc(N4CCOCC4)nc(N4CCOCC4)n3)cc2)cc1
## Result 8.19

## Task Next record, please: Nc1ccccc1NC(=O)CNC(=O)c1ccc(NC(=O)Nc2ccc(-c3nc(N4CCOCC4)nc(N4CCOCC4)n3)cc2)cc1
## Result 7.42

## Task Next record, please: COc1nc(-c2ccc(NC(=O)Nc3ccc(C(=O)NCCCCCCC(=O)Nc4ccccc4N)cc3)cc2)nc(N2CCOCC2)n1
## Result 7.05

## Task Next record, please: Nc1ccccc1NC(=O)CCCCCCNC(=O)c1ccc(NC(=O)Nc2ccc(-c3nc(OC4COC4)nc(N4CCOCC4)n3)cc2)cc1
## Result 8.05

## Task Next record, please: Nc1ccccc1NC(=O)CCCNC(=O)c1ccc(NC(=O)Nc2ccc(-c3nc(N4CCOCC4)nc(N4CCOCC4)n3)cc2)cc1
## Result 7.94

## Task Next record, please: Nc1ccccc1NC(=O)CCCCCNC(=O)c1ccc(NC(=O)Nc2ccc(-c3nc(N4CCOCC4)nc(N4CCOCC4)n3)cc2)cc1
## Result 7.76

## Task Next record, please: Nc1ccccc1NC(=O)CCCCCCCNC(=O)c1ccc(NC(=O)Nc2ccc(-c3nc(N4CCOCC4)nc(N4CCOCC4)n3)cc2)cc1
## Result 7.12
